System: HCC-2998 colon
Assay comment: NCI-60 one-dose screen, 48 h (100 = growth as untreated, 0 = no growth, -100 = all killed)
Study conditions: 10 µM unless noted
This is part of a sample that, as a whole, favours compounds with a hit. Of some 83,000 tested, about 20% had one in any assay.
Where growth equals or exceeds 90%, the correct label is Y; where it does not, the label is N.

{"Compound": "COC(OC)C1(c2ccccc2)NC(=O)NC1=O (stereo not given)", "Label value": "Y"}
{"Compound": "COC(=O)c1oc2c(C(=O)/C=C/c3ccc(OC)cc3)c(OCCN3CCOCC3)ccc2c1C", "Label value": "N"}
{"Compound": "CCNC(=O)Oc1ccc(/C(=C(/CC)Cc2ccccc2)c2ccc(OCCN3CCOCC3)cc2)cc1", "Label value": "N"}

Task: Determine whether this compound has growth no lower than 90%: OCCOCC(F)(F)F
Output: Y

Task: Determine whether this compound has growth no lower than 90%: O=C(Nc1ccccc1F)Nc1ccccc1Cl
Output: Y

Task: Determine whether this compound has growth no lower than 90%: O=C(C[n+]1cccc(Br)c1)c1ccc2c(c1)CCCC2
Output: Y

Task: Determine whether this compound has growth no lower than 90%: CCCC(=O)Oc1ccc(/C(=C(\C)c2ccc(Cl)cc2)c2ccc(OCCN(CC)CC)cc2)cc1
Output: N

Task: Determine whether this compound has growth no lower than 90%: CN(C)c1ncc(C#Cc2c(F)cccc2F)c2ccccc12
Output: Y

Task: Determine whether this compound has growth no lower than 90%: NCC(=O)NS(=O)(=O)OC[C@H]1O[C@@H](n2cnc3c(N)ncnc32)[C@H](O)[C@@H]1O
Output: N

Task: Determine whether this compound has growth no lower than 90%: O=C(COc1ccc(Cl)cc1Cl)N1N=C(c2ccc(Cl)cc2Cl)CC1(O)c1cc(F)c(Cl)cc1Cl (stereo not given)
Output: Y

Task: Determine whether this compound has growth no lower than 90%: CCC1S/C(=N\N=C(/C)c2cc3ccccc3o2)N(c2ccccc2)C1=O (stereo not given)
Output: Y

Task: Determine whether this compound has growth no lower than 90%: O=C(O)c1cccc2oc(-c3ccccc3O)nc12
Output: N

Task: Determine whether this compound has growth no lower than 90%: COc1ccc(-n2c(-c3ccc(NC(=O)CCCl)cc3)nnc2-c2cc(OC)c(OC)c(OC)c2)cc1
Output: N

Task: Determine whether this compound has growth no lower than 90%: O=S(=O)(CCN1CCOCC1)Nc1cc(-c2ccc3ncnc(Nc4ccc(F)c(Cl)c4)c3c2)cnc1Cl
Output: N

Task: Determine whether this compound has growth no lower than 90%: O=C(Nc1ccc(-n2cc(-c3ccncc3)c(-c3ccc(O)c(Cl)c3)n2)cc1)c1ccc(Cl)c(Cl)c1
Output: N

Task: Determine whether this compound has growth no lower than 90%: C=CCn1c(SCC(=O)Nc2ccc(/C(C)=N\O)cc2)nnc1-c1cc(-c2ccc(OC)cc2)nc2ccccc12
Output: N

Task: Determine whether this compound has growth no lower than 90%: ClC1c2ccccc2CCc2ccccc21
Output: Y

Task: Determine whether this compound has growth no lower than 90%: Nc1nccc2c1ccn2-c1cccc(NC(=O)c2ccc(N3CCOCC3)c(C(F)(F)F)c2)c1
Output: N

Task: Determine whether this compound has growth no lower than 90%: O=C(Nc1ccc(-n2cc(-c3ccncc3)c(-c3ccc(O)c(Cl)c3)n2)cc1)c1cc(Cl)cc(Cl)c1
Output: N

Task: Determine whether this compound has growth no lower than 90%: CC1(C)Cc2c(Br)c(Br)c(Br)c(OCC(O)CN3CCN(c4ccccn4)CC3)c2O1 (stereo not given)
Output: Y

Task: Determine whether this compound has growth no lower than 90%: O=S(c1ccccc1)c1ccc2nnnn2n1 (stereo not given)
Output: Y

Task: Determine whether this compound has growth no lower than 90%: COc1cccc(-c2nc3sccn3c2-c2ccnc(NCCNC(=O)Nc3cccc(C(F)(F)F)c3)n2)c1
Output: N

Task: Determine whether this compound has growth no lower than 90%: O=C1CN(CCN2CC(=O)NC(=O)C2)CC(=O)N1
Output: Y

Task: Determine whether this compound has growth no lower than 90%: CC1CCC(C(C)C)C(NN)C1 (stereo not given)
Output: Y

###

Tested on: MOLT-4 leukemia
Assay comment: NCI-60 one-dose screen, 48 h (100 = growth as untreated, 0 = no growth, -100 = all killed)
Study conditions: 10 µM unless noted
The panel holds about 83,000 compounds, 20% with a hit somewhere; the sample as a whole holds those more often.
Catalogue of compounds with associated growth
// units = %; emit number, no label

{"Compound": "COC(OC)C1(c2ccccc2)NC(=O)NC1=O (stereo not drawn)", "Property label": "growth", "Unit abbreviation": "%", "Observed": 89.1}
{"Compound": "CCN1CCN(Cc2ccc(NC(=O)Nc3cccc(-n4ccc5c(NC(=O)c6ccccc6)nccc54)c3)cc2C(F)(F)F)CC1", "Property label": "growth", "Unit abbreviation": "%", "Observed": 112}
{"Compound": "Nn1c(CN2CCN(c3cc4c(cc3F)c(=O)c(C(=O)O)cn4C3CC3)CC2)n[nH]c1=S", "Property label": "growth", "Unit abbreviation": "%", "Observed": 103}
{"Compound": "COc1ccc2c(c1)nnn1c3ncccc3c(N=O)c21", "Property label": "growth", "Unit abbreviation": "%", "Observed": -55.6}
{"Compound": "COc1ccc(-c2nn(-c3ccc(NC(=O)Nc4ccc(Cl)c(C(F)(F)F)c4)cc3)cc2-c2ccncc2)cc1Cl", "Property label": "growth", "Unit abbreviation": "%", "Observed": 8.53}

Task: Any idea what its growth is? The compound is C=CCOc1ccc(/C(Cl)=N/N=C(\Cl)c2cc(OC)c(OC)c(OC)c2)cc1
Output: 30.8

Task: Any idea what its growth is? The compound is O[C@@H]1CCO[C@H](c2ccc3ccccc3c2)C1
Output: 99.1

Task: Any idea what its growth is? The compound is CC(C)(c1ccc(OCC(O)CNCc2ccco2)cc1)c1ccc(OCC(O)CNCc2ccco2)cc1 (stereo not drawn)
Output: 67.1

Task: Any idea what its growth is? The compound is O=C(c1cc(-c2ccc(Cl)cc2)nc2ccccc12)N1N=C(c2ccccc2)CC1c1cc(-c2ccccc2)nn1-c1ccccc1 (stereo not drawn)
Output: 68.7

Task: Any idea what its growth is? The compound is O=C(O)c1ccc(-n2cc(/C=N/Nc3ccc(Cl)cc3)c(-c3ccc(F)c(F)c3)n2)cc1
Output: 37.6

Task: Any idea what its growth is? The compound is Nc1nc(Cl)cc(NCCCCNc2cc(Cl)nc(N)n2)n1
Output: 94.8

###

System: M14 melanoma
Assay comment: NCI-60 one-dose screen, 48 h (100 = growth as untreated, 0 = no growth, -100 = all killed)
Study conditions: 10 µM unless noted
Description: Growth inhibition of the M14 human tumor cell line is measured as a screen for anti-cancer activity. Cells are grown in 96 well plates and exposed to the test compound for 48 hours. Compounds are tested at a single concentration, which is 10^-5 M for most compounds. The reported endpoint is percent growth (GI% or GIPRCNT), where numbers from 0 - 100% represent growth inhibition, and numbers from -100% - 0 represent cell death. For example, a value of 40 represents 60% growth inhibition. […]
The panel holds about 83,000 compounds, 20% with a hit somewhere; the sample as a whole holds those more often.
Property label: growth (%)
// units = %; emit number, no label

Task: Any idea what its growth is? The compound is COc1ccc(OCC(O)CN2CCN(c3ccc(Cl)cc3)CC2)cc1 (stereo not given)
Output: 102

Task: Any idea what its growth is? The compound is Cc1cc(Nc2ccc(Cl)c(Cl)c2)nc(N)n1
Output: 91.6

Task: Any idea what its growth is? The compound is C[C@H]1C=C(C[C@@H](O)CCCCCCCCCC[C@@H](O)[C@H]2CCC(=O)O2)C(=O)O1
Output: 101

###

Tested on: SN12C renal
Assay comment: NCI-60 one-dose screen, 48 h (100 = growth as untreated, 0 = no growth, -100 = all killed)
Study conditions: 10 µM unless noted
The panel holds about 83,000 compounds, 20% with a hit somewhere; the sample as a whole holds those more often.
Where growth equals or exceeds 80%, the correct label is true; where it does not, the label is false.

{"Compound": "Nc1nc(-c2cc3c(cc2Cl)NC(=O)/C3=C/c2ccc(Cl)cc2)cs1", "Label value": "false"}
{"Compound": "CCCCCCCC(=O)SCC/C=C/[C@@H]1CC(=O)NCc2nc(cs2)C2=N[C@@](C)(CS2)C(=O)N[C@@H](C(C)C)C(=O)N1", "Label value": "false"}
{"Compound": "O=C(Nc1ccc(-n2cc(-c3ccncc3)c(-c3ccc(O)c(Cl)c3)n2)cc1)c1ccc(Cl)c(C(F)(F)F)c1", "Label value": "false"}
{"Compound": "C[C@]12O[C@H]1[C@H](O)c1c(cc(O)c3c1C(=O)c1cccc(O)c1-3)C2=O", "Label value": "true"}

Task: Determine whether this compound has growth no lower than 80%: COc1cc(-c2nc(SCC(=O)Nc3ccc(C(C)=O)cc3)[nH]c(=O)c2C#N)cc(OC)c1OC
Output: false

Task: Determine whether this compound has growth no lower than 80%: COc1cc([C@@H]2c3cc4c(cc3C(OC3O[C@@H]5COC(C)O[C@H]5[C@H](O)[C@H]3O)C3COC(=O)[C@@H]32)OCO4)cc(OC)c1O (some centres undefined)
Output: false

Task: Determine whether this compound has growth no lower than 80%: O=C1c2ccccc2C(=O)c2c(NCCN=Cc3c(O)ccc4ccccc34)cccc21
Output: true
